Experiment Summary: qHTS Screen for Compounds that Selectively Target Cancer Cells with p53 Mutations: Cytotoxicity of p53 Null Cells at the Nonpermissive Temperature; note: nearly all actives have a fitted effect of over 50% in size
Reported Conditions: H1299 p53-null (neo) cells, 39C, ATPlite viability, 24 h; series mostly up to 46.1 µM
Hit rate of the full screen: of about 55,000 compounds, about 530 (0.96%) were called active. Not shown: some 7% with an inconclusive outcome. Calls come from the whole dose curve; as a rule, active = well fitted cell-killing curve with a large enough effect; inconclusive = small, poorly fitted or top-dose-only effect; inactive = no such curve, though single readings can be large or run the other way. The list comes from a sample in which actives are over-represented; it also holds close analogues and randomly drawn compounds.
Outcome codes: active, inactive

[[record]]
smiles_representation = "Cc1cccc2nc(-c3ccc(Cl)s3)c(Nc3ccc4c(c3)OCCO4)n12"
class = "inactive"

[[record]]
smiles_representation = "Cc1ccc(Nc2c(-c3ccc(C)s3)nc3ccccn23)cc1"
class = "inactive"

[[record]]
smiles_representation = "COc1ccccc1OCC(=O)Nc1nnc2n1CCS2"
class = "inactive"

[[record]]
smiles_representation = "Cc1ccn2c(Nc3ccc4c(c3)OCCO4)c(-c3ccc(C)s3)nc2c1"
class = "active"

[[record]]
smiles_representation = "COc1ccccc1-c1cc(C(F)(F)F)nc(S(=O)(=O)CCCC(=O)Nc2cc(C)ccc2O)n1"
class = "active"

[[record]]
smiles_representation = "Cc1ccc(Nc2nnc(-c3ccc(C)c(S(=O)(=O)N4CCCCC4)c3)c3ccccc23)cc1"
class = "inactive"


---

Reported values of activity, negative = cell killing for individual entries
Experiment Summary: qHTS Screen for Compounds that Selectively Target Cancer Cells with p53 Mutations: Cytotoxicity of p53 Null Cells at the Nonpermissive Temperature; note: nearly all actives have a fitted effect of over 50% in size;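 for activity, negative = cell killing: 0% = DMSO only and -100% = full killing by 100 µM tamoxifen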
Reported Conditions: H1299 p53-null (neo) cells, 39C, ATPlite viability, 24 h; series mostly up to 46.1 µM
About 530 (0.96%) of roughly 55,000 compounds were called active. Roughly 7% stayed inconclusive and do not appear here. Shown is part of a subset that was picked to be rich in actives.
Value Type: activity, negative = cell killing

[[record]]
molecule = "CN(Cc1ccccc1)C(=O)COC(=O)c1ccccc1Nc1ccccc1"
value_type = "activity, negative = cell killing"
result = "-8.55% [at 1.84 µM] (inactive)"

[[record]]
molecule = "O=C1N(c2ccc(Cl)cc2)C(c2ccc(Cl)cc2)N2CCCN12 (stereo not drawn)"
value_type = "activity, negative = cell killing"
result = "-0.885% [at 1.84 µM] (inactive)"

[[record]]
molecule = "Cc1c(C(=O)NCCCc2ccccc2)cccc1[N+](=O)[O-]"
value_type = "activity, negative = cell killing"
result = "-7.93% [at 1.84 µM] (inactive)"


Values from PubChem BioAssay AID904
